- Test system: SK-MEL-28 cells
- Test Summary: Cytotoxicity in low glucose condition (MTT assay)
- Assay type: cell-based
- Condition Info: Homo sapiens, SK-MEL-28, 72 h, 0.75 mM glucose, 72 hours treatment, read-out: SK-MEL-280.75 mM glucose cell viability (IC50 μM)
Structures can show the parent of a compound that is named as a salt.
Measured IC50 values are reported for all entries that follow.
Value Type: IC50

>>> result_value("N=C(NC(=N)N1CCC(F)(F)CC1)Nc1ccc(F)c(Cl)c1 [Example 11, hydrochloride]")
"6 to 15 µM"
>>> result_value("N=C(NC(=N)N1CCC(F)(F)CC1)Nc1ccc2c(c1)CCCC2 [Example 2, hydrochloride]")
"6 to 15 µM"
>>> result_value("CSc1ccc(NC(=N)NC(=N)N2CCC(F)(F)CC2)cc1 [Example 8, hydrochloride]")
"6 to 15 µM"
>>> result_value("N=C(NC(=N)N1CCC(F)(F)C1)Nc1ccc(OC(F)(F)F)cc1 [Example 25, acetate]")
"< 6 µM"

====

Measured IC50 values are reported for all entries that follow.
- Tested on: A549 cells
- Test Summary: Test for inhibition of OCR and enhancement of ECAR (XF Analyzer)
- Type: cell-based
- Condition Info: Homo sapiens, 24 hrs treatment, oxygen consumption rate
Structures can show the parent of a compound that is named as a salt.
Value Type: IC50

>>> result_value("N=C(NC(=N)N1CCC(F)(F)C1)Nc1ccc(I)c(Cl)c1 [Example 31, acetate]")
"2 to 4 µM"
>>> result_value("N=C(NC(=N)N1CCC(F)(F)CC1)Nc1ccc(F)c(Cl)c1 [Example 11, hydrochloride]")
"> 4 µM"
>>> result_value("N=C(NC(=N)N1CCC(F)(F)C1)Nc1ccc(OC(F)(F)F)c(Br)c1 [Example 39, acetate]")
"2 to 4 µM"
>>> result_value("N=C(NC(=N)N1CCC(F)(F)C1)Nc1ccc(Oc2ccccc2)cc1 [Example 28, acetate]")
"2 to 4 µM"
>>> result_value("N=C(NC(=N)N1CCC(F)(F)CC1)Nc1ccc2c(c1)CCCC2 [Example 2, hydrochloride]")
"> 4 µM"
>>> result_value("N=C(NC(=N)N1CCC(F)(F)CC1)Nc1ccc(SC(F)(F)F)cc1 [Example 9, hydrochloride]")
"2 to 4 µM"
>>> result_value("N=C(NC(=N)N1CCC(F)(F)C1)Nc1ccc(OC(F)(F)F)c(Cl)c1 [Example 38, acetate]")
"2 to 4 µM"
>>> result_value("N=C(NC(=N)N1CCC(F)(F)C1)Nc1ccc(C(F)(F)F)cc1 [Example 30, acetate]")
"2 to 4 µM"
>>> result_value("N=C(NCc1ccccc1Br)NC(=N)N1CCC(F)(F)CC1 [Example 40, hydrochloride]")
"> 4 µM"
>>> result_value("N=C(NC(=N)N1CCC(F)(F)C1)Nc1cccc(Oc2ccccc2)c1 [Example 29, acetate]")
"< 2 µM"
>>> result_value("N=C(NC(=N)N1CCC(F)(F)CC1)Nc1ccc(Br)cc1 [Example 6, hydrochloride]")
"> 4 µM"

====

Measured IC50 values are reported for all entries that follow.
- Test system: SK-MEL-28 cells
- Test Summary: Cytotoxicity in low glucose condition (MTT assay)
- Assay type: cell-based
- Condition Info: Homo sapiens, SK-MEL-28, 72 h, 0.75 mM glucose, 72 hours treatment, read-out: SK-MEL-280.75 mM glucose cell viability (IC50 μM)
Counter-ions that a name gives are not always drawn.
Value Type: IC50

>>> result_value("N=C(NC(=N)N1CCC(F)(F)CC1)Nc1ccc(I)c(Br)c1 [Example 22, acetate]")
"< 6 µM"
>>> result_value("CC(C)c1ccc(NC(=N)NC(=N)N2CCC(F)(F)CC2)cc1 [Example 10, hydrochloride]")
"6 to 15 µM"
>>> result_value("N=C(NC(=N)N1CCC(F)(F)CC1)Nc1ccccc1 [Example 1, hydrochloride]")
"> 15 µM"
>>> result_value("N=C(NC(=N)N1CCC(F)(F)C1)Nc1ccc(C(F)(F)F)cc1 [Example 30, acetate]")
"6 to 15 µM"

====

- Tested on: A549 cells
- Test Summary: Test for inhibition of OCR and enhancement of ECAR (XF Analyzer)
- Type: cell-based
- Condition Info: Homo sapiens, 24 hrs treatment, oxygen consumption rate
Counter-ions that a name gives are not always drawn.
Measured IC50 values are reported for all entries that follow.
Value Type: IC50

>>> result_value("N=C(NC(=N)N1CCC(F)(F)CC1)Nc1ccc(OC(F)(F)F)cc1 [Example 17, acetate]")
"2 to 4 µM"
>>> result_value("N=C(NC(=N)N1CCC(F)(F)CC1)Nc1ccc(Br)c(Br)c1 [Example 26, acetate]")
"2 to 4 µM"
>>> result_value("N=C(NC(=N)N1CCC(F)(F)CC1)Nc1ccc(OC(F)(F)F)c(F)c1")
"< 2 µM"
>>> result_value("CSc1ccc(NC(=N)NC(=N)N2CCC(F)(F)CC2)cc1 [Example 8, hydrochloride]")
"> 4 µM"

====

- Test system: SK-MEL-28 cells
- Test Summary: Cytotoxicity in low glucose condition (MTT assay)
- Type: cell-based
- Condition Info: Homo sapiens, SK-MEL-28, 72 h, 0.75 mM glucose, 72 hours treatment, read-out: SK-MEL-280.75 mM glucose cell viability (IC50 μM)
Where a name gives a salt, the structure may show the parent alone.
Measured IC50 values are reported for all entries that follow.
Value Type: IC50

>>> result_value("N=C(NC(=N)N1CCC(F)(F)CC1)Nc1cccc(Oc2ccccc2)c1 [Example 13, hydrochloride]")
"< 6 µM"
>>> result_value("N=C(NC(=N)N1CCC(F)(F)CC1)Nc1ccc(Cl)c(Cl)c1 [Example 3, hydrochloride]")
"< 6 µM"
>>> result_value("N=C(NC(=N)N1CCC(F)(F)CC1)Nc1ccc(SC(F)(F)F)cc1 [Example 9, hydrochloride]")
"< 6 µM"
>>> result_value("N=C(NC(=N)N1CCC(F)(F)C1)Nc1ccc(I)c(Cl)c1 [Example 31, acetate]")
"6 to 15 µM"
>>> result_value("N=C(NC(=N)N1CCC(F)(F)CC1)Nc1ccc(C(F)(F)F)cc1 [Example 21, acetate]")
"< 6 µM"
>>> result_value("N=C(NC(=N)N1CCC(F)(F)CC1)Nc1cccc(Br)c1 [Example 5, hydrochloride]")
"6 to 15 µM"
>>> result_value("N=C(NC(=N)N1CCSC1)Nc1ccc(SC(F)(F)F)cc1 [Example 14, hydrochloride]")
"< 6 µM"
>>> result_value("N=C(NC(=N)N1CCC(F)(F)C1)Nc1ccc(Oc2ccccc2)cc1 [Example 28, acetate]")
"< 6 µM"
>>> result_value("N=C(NC(=N)N1CCC(F)(F)C1)Nc1cccc(Oc2ccccc2)c1 [Example 29, acetate]")
"< 6 µM"
>>> result_value("N=C(NC(=N)N1CCC(F)(F)CC1)Nc1ccc(OC(F)(F)F)c(F)c1")
"< 6 µM"
>>> result_value("N=C(NCc1ccc(Cl)c(Cl)c1)NC(=N)N1CCC(F)(F)CC1 [Example 42, hydrochloride]")
"6 to 15 µM"
>>> result_value("N=C(NC(=N)N1CCC(F)(F)CC1)Nc1ccc(Oc2ccccc2)cc1 [Example 23, acetate]")
"< 6 µM"
>>> result_value("N=C(NC(=N)N1CCC(F)(F)CC1)Nc1ccc(Br)c(Br)c1 [Example 26, acetate]")
"6 to 15 µM"
>>> result_value("N=C(NC(=N)N1CCC(F)(F)CC1)Nc1ccccc1Br [Example 4, hydrochloride]")
"> 15 µM"
>>> result_value("N=C(NC(=N)N1CCC(F)(F)CC1)Nc1ccc(Br)cc1 [Example 6, hydrochloride]")
"6 to 15 µM"
>>> result_value("N=C(NC(=N)N1CCC(F)(F)C1)Nc1ccc(OC(F)(F)F)c(Cl)c1 [Example 38, acetate]")
"6 to 15 µM"

Data provenance is patent US10590081B2.
